assay: Oral bioavailability in guinea pig at 1 mg/kg administered as cassette dosing; assay type: ADME, organism-based, Cavia porcellus; details: in vivo
Below: a set of entries, each annotated with reported bioavailability.
# value in %; strip the unit string

Input: Quickly give me recorded bioavailability for Cc1c(F)cccc1CCCCOc1ccc(C#Cc2ccc(F)c3c(CCCC(=O)O)c(C)n(CCCC(=O)O)c23)cc1
Output: 56

Input: Answer with the recorded bioavailability for the compound listed here: Cc1c(Cl)cccc1CCCCOc1ccc(C#Cc2cccc3c(CCCC(=O)O)c(C)n(CCCC(=O)O)c23)cc1
Output: 66

As a next step, examine the compound that follows.
Input: For Cc1c(Cl)cccc1CCCCOc1ccc(C#Cc2ccc(F)c3c(CCCC(=O)O)c(C)n(CCCC(=O)O)c23)cc1 , write its bioavailability.
Output: 52

Taken from ChEMBL document CHEMBL3596134.
